Sourced from paper PMC10812921

- TARGET_SYSTEM: POU1 (OCT1 POU domain);BOB1 (OBF1, OCA-B) (human;human, UniProt P14859;Q16633 260-458;1-256, |)
- Sequence (P14859 260-458, chain 1 of 2): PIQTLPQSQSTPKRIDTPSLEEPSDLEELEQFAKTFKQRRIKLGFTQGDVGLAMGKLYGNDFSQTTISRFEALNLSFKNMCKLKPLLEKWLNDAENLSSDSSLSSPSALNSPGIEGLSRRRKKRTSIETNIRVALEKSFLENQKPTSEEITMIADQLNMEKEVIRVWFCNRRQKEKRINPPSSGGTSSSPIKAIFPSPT
- Sequence (Q16633 whole entry, chain 2 of 2, the tested form may be a part): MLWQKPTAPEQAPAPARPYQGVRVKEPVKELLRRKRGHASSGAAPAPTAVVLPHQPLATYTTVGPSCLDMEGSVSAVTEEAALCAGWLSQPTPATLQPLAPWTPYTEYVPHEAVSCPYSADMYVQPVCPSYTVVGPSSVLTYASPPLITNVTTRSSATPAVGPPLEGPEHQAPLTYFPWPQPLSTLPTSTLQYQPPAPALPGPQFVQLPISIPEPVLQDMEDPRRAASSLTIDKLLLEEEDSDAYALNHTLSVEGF
- PROTOCOL_TEXT: EMSA-SELEX-seq; with BOB1 (ternary complex band); 20 mM Tris-HCl pH 7.6, 140 mM NaCl, 10% glycerol, 0.5 mM EDTA, 0.05% Triton X-100, 0.1 mg/mL BSA, 0.1 mg/mL poly(dI-dC), 5 mM DTT, room temperature, 20 min; high values mean tight binding
- CONDITION_NOTES: protein: recombinant;recombinant; copies: 1;1; dsDNA, one strand shown
Task for the reader: assign each of the following sequences its reported binding signal.

**Q:** # binding signal lookup, item `AAACTAAA`
**A:** 0.0523 % of ANNNNAAN 8-mers

**Q:** How about `AAGGAAAG` ?
**A:** 0.0792 % of ANNNNAAN 8-mers

**Q:** And for `AAGATAAT` ?
**A:** 0.0819 % of ANNNNAAN 8-mers

**Q:** Then `AGGATAAC` ?
**A:** 0.0293 % of ANNNNAAN 8-mers

**Q:** Next sequence up: `AGAGCAAC`
**A:** 0.0137 % of ANNNNAAN 8-mers

**Q:** Consider next the sequence `AACATAAT` in the same way.
**A:** 0.0515 % of ANNNNAAN 8-mers

**Q:** Repeat for the following sequence: `ACAGCAAA`
**A:** 0.0359 % of ANNNNAAN 8-mers

**Q:** Next up: `AAAAGAAG`
**A:** 0.0679 % of ANNNNAAN 8-mers

**Q:** Input `ACAACAAG`
**A:** 0.0187 % of ANNNNAAN 8-mers

**Q:** Another sequence to look at: `ACTGTAAT`
**A:** 0.0464 % of ANNNNAAN 8-mers

**Q:** Also `ACGTAAAG` , if possible.
**A:** 0.0667 % of ANNNNAAN 8-mers

**Q:** # repeat for `ACAGAAAT`
**A:** 0.0472 % of ANNNNAAN 8-mers

**Q:** Further, for `AGCTCAAA` ?
**A:** 0.0242 % of ANNNNAAN 8-mers

**Q:** Item: `ATGACAAT`
**A:** 0.0453 % of ANNNNAAN 8-mers

**Q:** Try this sequence next: `AGAAGAAG`
**A:** 0.0379 % of ANNNNAAN 8-mers

**Q:** Again, but for `AGCAAAAG`
**A:** 0.062 % of ANNNNAAN 8-mers

**Q:** Record: `ATATCAAG`
**A:** 0.0453 % of ANNNNAAN 8-mers

**Q:** One more sequence: `AGCGCAAC`
**A:** 0.0125 % of ANNNNAAN 8-mers

**Q:** Now consider `AGTGCAAC` .
**A:** 0.0113 % of ANNNNAAN 8-mers

**Q:** Moving on to `ATGACAAA`
**A:** 0.0539 % of ANNNNAAN 8-mers

**Q:** Try the sequence `AACAGAAG`
**A:** 0.0273 % of ANNNNAAN 8-mers

**Q:** Please answer likewise for `ATAAAAAT`
**A:** 0.114 % of ANNNNAAN 8-mers
